The reported numbers originate from patent US6723753B2.

molecular target: CETP (Homo sapiens, UniProt P11597); experiment: Assay of CETP Inhibition in Human Plasma; assay type: biochemical; set-up: Blood was obtained from healthy volunteers, recruited from the personnel of Monsanto Company; from tissue; host or cells: human EDTA plasma pool from healthy volunteers; conditions: Inhibition of CETP activity in human plasma assay; transfer of [3H]CE from HDL to VLDL and LDL; read-out: IC50
readout-label: pIC50
Answers are plain numbers, as −log10 of the molar value.

OC(CN(Cc1cccc(OC(F)(F)C(F)F)c1)c1cccc(Oc2cc(Br)ccc2F)c1)C(F)(F)F (centres unmarked) [Example 630]; 5.74
CCC(C)c1ccc(Oc2cccc(N(Cc3cccc(OC(F)(F)C(F)F)c3)CC(O)C(F)(F)F)c2)cc1 (centres unmarked) [Example 254]; 4.11
CCc1cc(Oc2cccc(N(Cc3cccc(C(F)(F)C(F)(F)F)c3)CC(O)C(F)(F)F)c2)ccc1Cl (centres unmarked) [Example 660]; 5.96

Please find the next molecule below.
Lab note: OC(CN(Cc1cccc(OC(F)(F)C(F)F)c1)c1cccc(Oc2ccc(F)c(Cl)c2)c1)C(F)(F)F (centres unmarked) [Example 245] gave pIC50 of 5.08

---

biological target: UniProt:P11597; assay: Assay of CETP Inhibition using Purified Components (Reconstituted Buffer Assay); type: biochemical; design: made in house; host or cells: CHO cells (serum-free conditioned medium); conditions: Inhibition of CETP activity in reconstituted buffer assay; transfer of [3H]CE from HDL to LDL; read-out: IC50
For each entry below, report its IC50 value.
One number for each entry, in µM.

Some solved cases for reference:
CCOc1ccc(CN(CC(O)C(F)(F)F)c2cccc(OC(F)(F)F)c2)cc1 (centres unmarked); 12
OC(CN(Cc1cccc(OC(F)(F)C(F)F)c1)c1cccc(-c2ccc(F)c(F)c2)c1)C(F)(F)F (centres unmarked); 0.56

// for each compound below, give its IC50
1. COc1cccc(N(Cc2cccc(OC(F)(F)F)c2)CC(O)C(F)(F)F)c1 (centres unmarked)
2. OC(CN(Cc1cccc(OC(F)(F)C(F)F)c1)c1cccc(OCc2ccc(F)cc2)c1)C(F)(F)F (centres unmarked)
3. CON(C)C(=O)c1cccc(CN(CC(O)C(F)(F)F)c2cccc(Oc3ccccc3)c2)c1 (centres unmarked) [620A]
4. CC(C)(C)c1ccc(Oc2cccc(N(Cc3cccc(OC(F)(F)C(F)F)c3)CC(O)C(F)(F)F)c2)cc1 (centres unmarked)

8
0.56
24.6
2.2

Documented IC50 of OC(CN(Cc1cc(OCc2ccccc2)cc(OCc2ccccc2)c1)c1cccc(OC(F)(F)F)c1)C(F)(F)F (centres unmarked) : 75

---

target: CETP (Homo sapiens); assay: Assay of CETP Inhibition using Purified Components (Reconstituted Buffer Assay); assay type: biochemical; parameters: made in house; host or cells: CHO cells (serum-free conditioned medium); conditions: IC50, Inhibition of CETP activity in reconstituted buffer assay; transfer of [3H]CE from HDL to LDL
Kindly state pIC50 for each of the entries shown.
Numbers only, as −log10 of the molar value.

As a guide, the following entries are already answered.
OC(CN(Cc1cccc(Oc2ccccc2)c1)c1cccc(F)c1)C(F)(F)F (stereo not drawn); 4.82
OC(CN(Cc1ccc(-c2ccccc2)cc1)c1cccc(F)c1)C(F)(F)F (stereo not drawn); 4.70
OC(CN(Cc1ccc(OC(F)(F)F)cc1)c1cccc(Oc2ccccc2)c1)C(F)(F)F (stereo not drawn); 5.46

Required: pIC50, one value per compound below.
1. OC(CN(Cc1ccc2c(c1)OC(F)(F)C(F)(F)O2)c1cccc(Oc2ccccc2)c1)C(F)(F)F (stereo not drawn)
2. OC(CN(Cc1ccc(OC(F)(F)F)cc1)c1cccc(F)c1)C(F)(F)F (stereo not drawn)
3. OC(CN(Cc1cccc(OC(F)(F)F)c1)c1ccc(Oc2ccccc2)cc1)C(F)(F)F (stereo not drawn)
4. OC(CN(Cc1cccc(OC(F)(F)F)c1)Cc1cccc(OC(F)(F)F)c1)C(F)(F)F (stereo not drawn)
5. CC(C)Cc1cccc(CN(CC(O)C(F)(F)F)c2cccc(Oc3ccccc3)c2)c1 (stereo not drawn)
6. OC(CN(Cc1cccc(OC(F)(F)C(F)F)c1)c1cccc(Oc2cccnc2)c1)C(F)(F)F (stereo not drawn)
7. OC(CN(Cc1cccc(C(F)(F)F)c1)c1cccc(C(F)(F)F)c1)C(F)(F)F (stereo not drawn)
8. OC(CN(Cc1cccc(-c2ncccc2C(F)(F)F)c1)c1cccc(Oc2ccccc2)c1)C(F)(F)F (stereo not drawn)

4.92
4.82
4.60
4.64
6.27
5.89
5.00
5.39

---

Target: CETP (Homo sapiens, UniProt P11597)
Sequence (P11597 18-493): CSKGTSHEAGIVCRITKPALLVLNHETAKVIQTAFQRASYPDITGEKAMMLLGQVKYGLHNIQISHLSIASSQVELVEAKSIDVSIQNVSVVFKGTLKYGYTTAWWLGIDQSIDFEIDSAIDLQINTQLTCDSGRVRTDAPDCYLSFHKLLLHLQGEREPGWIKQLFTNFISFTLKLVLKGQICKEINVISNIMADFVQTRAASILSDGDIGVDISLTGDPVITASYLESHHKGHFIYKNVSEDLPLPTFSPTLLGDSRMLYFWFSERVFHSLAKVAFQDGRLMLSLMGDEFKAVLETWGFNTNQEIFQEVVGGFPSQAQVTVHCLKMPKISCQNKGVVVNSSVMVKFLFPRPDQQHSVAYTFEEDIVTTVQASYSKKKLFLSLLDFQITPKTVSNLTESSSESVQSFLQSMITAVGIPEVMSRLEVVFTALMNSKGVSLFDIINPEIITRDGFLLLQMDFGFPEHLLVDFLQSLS
Assay: Assay of CETP Inhibition using Purified Components (Reconstituted Buffer Assay)
Assay type: biochemical
Set-up: made in house; host or cells: CHO cells (serum-free conditioned medium)
Conditions: Inhibition of CETP activity in reconstituted buffer assay; transfer of [3H]CE from HDL to LDL; read-out: IC50
Rule: measured IC50 below 20 µM gets Criterion met; anything equal to or greater than 20 µM gets Criterion not met.

The examples below pair each entry with its known result.
OC(CN(Cc1ccc2ccccc2n1)c1cccc(OC(F)(F)F)c1)C(F)(F)F (centres unmarked); Criterion not met
CC(C)C(=O)c1cccc(N(Cc2cccc(OC(F)(F)C(F)F)c2)CC(O)C(F)(F)F)c1 (centres unmarked); Criterion met
OC(CN(Cc1cccc(OC(F)(F)C(F)F)c1)c1cccc(OC2CCOCC2)c1)C(F)(F)F (centres unmarked); Criterion met
CC(c1ccc(C#N)cc1)N(CC(O)C(F)(F)F)c1cccc(Oc2ccccc2)c1 (centres unmarked); Criterion not met
COc1ccc(CCCN(CC(O)C(F)(F)F)c2cccc(OC(F)(F)F)c2)cc1 (centres unmarked); Criterion not met

Does this molecule meet the criterion IC50 < 20 µM? Cc1cccc(N(Cc2cccc(OC(F)(F)F)c2)CC(O)C(F)(F)F)c1 (centres unmarked)
Criterion met

Is the reported IC50 for Cc1ccc(CN(CC(O)C(F)(F)F)c2cc(F)cc(F)c2)cc1 (centres unmarked) strictly below 20 µM?
Criterion not met

Criterion: IC50 strictly below 20 µM. Is it met by OC(CN(Cc1cccc(Cl)c1)Cc1cccc(C(F)(F)F)c1)C(F)(F)F (centres unmarked) ?
Criterion met

---

Target: CETP (Homo sapiens)
Sequence (P11597 18-493): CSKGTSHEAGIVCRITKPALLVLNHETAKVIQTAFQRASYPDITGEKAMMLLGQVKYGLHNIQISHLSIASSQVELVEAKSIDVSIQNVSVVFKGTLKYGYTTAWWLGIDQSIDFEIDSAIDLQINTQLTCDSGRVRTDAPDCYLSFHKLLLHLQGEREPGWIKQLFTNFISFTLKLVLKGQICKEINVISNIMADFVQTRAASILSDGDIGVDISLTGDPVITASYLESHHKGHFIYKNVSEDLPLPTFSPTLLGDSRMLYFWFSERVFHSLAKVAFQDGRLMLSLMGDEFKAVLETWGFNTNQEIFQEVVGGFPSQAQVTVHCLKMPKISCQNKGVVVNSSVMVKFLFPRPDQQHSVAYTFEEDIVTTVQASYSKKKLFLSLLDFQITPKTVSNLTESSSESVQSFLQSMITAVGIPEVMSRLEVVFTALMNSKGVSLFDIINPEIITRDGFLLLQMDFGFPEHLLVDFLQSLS
Test: Assay of CETP Inhibition using Purified Components (Reconstituted Buffer Assay)
Assay type: biochemical
Set-up: made in house; host or cells: CHO cells (serum-free conditioned medium)
Conditions: Inhibition of CETP activity in reconstituted buffer assay; transfer of [3H]CE from HDL to LDL; read-out: IC50
We label by threshold. Values of IC50 strictly beneath 1 µM are t. Values of 1 µM and up are f.

OC(CN(Cc1cccc(C(F)(F)F)c1)c1ccc(-c2ccccc2)cc1)C(F)(F)F (stereo not shown) [Example 689]; f

Field: below-cutoff. Rule: recorded IC50 strictly less than 1 µM. Subject: OC(CN(Cc1ccc(OC(F)(F)F)cc1)c1ccccc1)C(F)(F)F (stereo not shown) [Example 59]
f

Say whether its IC50 is strictly beneath 1 µM. Entry: OC(CN(Cc1cccc(OC(F)(F)C(F)F)c1)c1cccc(Oc2cccc(F)c2F)c1)C(F)(F)F (stereo not shown) [Example 238]
t

Would you kindly verify if IC50 of OC(CN(Cc1cccc(OC(F)(F)C(F)F)c1)c1cccc(OCc2ccc(F)c(F)c2)c1)C(F)(F)F (stereo not shown) [Example 398] is strictly less than 1 µM?
f

is_below(IC50, 1 µM) for O=[N+]([O-])c1ccccc1Oc1cccc(N(Cc2cccc(OC(F)(F)C(F)F)c2)CC(O)C(F)(F)F)c1 (stereo not shown) [Example 436] ?
t

Say whether its IC50 is strictly beneath 1 µM. Entry: Nc1cccc(COc2cccc(N(Cc3cccc(OC(F)(F)C(F)F)c3)CC(O)C(F)(F)F)c2)c1 (stereo not shown) [Example 434B]
f

Check if IC50 falls below 1 µM for OC(CN(Cc1cccc(Oc2ccccc2)c1)c1cc(C(F)(F)F)cc(C(F)(F)F)c1)C(F)(F)F (stereo not shown) [Example 690] .
f

Is 1 µM strictly greater than the compound's reported IC50? compound: COc1ccc(OC)c(CN(CC(O)C(F)(F)F)c2cccc(OC(F)(F)F)c2)c1 (stereo not shown) [Example 355]
f

hey, is IC50 for OC(CN(Cc1cccc(Oc2cccc(C(F)(F)F)c2)c1)c1cccc(C(F)(F)F)c1)C(F)(F)F (stereo not shown) [Example 108] lower than 1 µM or not?
f
